- study.system: Beta 1,3 N-acetylglucosaminyltransferase (Neisseria meningitidis) (UniProt Q8KHG4)
- Sequence (Q8KHG4 as listed by the source): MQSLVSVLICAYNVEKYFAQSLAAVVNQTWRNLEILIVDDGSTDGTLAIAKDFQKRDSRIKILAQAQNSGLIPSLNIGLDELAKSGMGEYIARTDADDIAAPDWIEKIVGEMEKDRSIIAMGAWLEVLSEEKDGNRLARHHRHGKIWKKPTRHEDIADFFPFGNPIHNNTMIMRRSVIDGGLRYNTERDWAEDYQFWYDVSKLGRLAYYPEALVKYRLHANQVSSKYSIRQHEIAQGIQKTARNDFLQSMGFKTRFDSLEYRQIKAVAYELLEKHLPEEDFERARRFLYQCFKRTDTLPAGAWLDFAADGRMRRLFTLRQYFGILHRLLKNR
- assay.procedure: Ratio of Vmax to Km for Neisseria meningitidis beta1,3-N-acetylglucosaminyltransferase LgtA assessed as enzyme catalyzed glycosylation using lactose as substrate after 2 to 30 mins by SAMDI analysis
Class 1: Vmax/Km at least 0.3 min⁻¹. Class 0: Vmax/Km below 0.3 min⁻¹.

*Q* Has CC(=O)N[C@@H]1[C@H](OP(=O)(O)OP(=O)(O)OC[C@H]2O[C@@H](n3ccc(=O)[nH]c3=O)[C@H](O)[C@@H]2O)O[C@@H](CO)[C@H](O)[C@H]1O (stereo in doubt; 8) a recorded Vmax/Km greater than or equal to 0.3 min⁻¹?
*A* 0

*Q* Has "CCC(=O)N[C@H]1[C@@H](OP(=O)(O)OP(=O)(O)OC[C@H]2O[C@@H](n3ccc(=O)[nH]c3=O)[C@H](O)[C@@H]2O)O[C@H](CO)[C@@H](O)[C@@H]1O" a recorded Vmax/Km greater than or equal to 0.3 min⁻¹?
*A* 0

*Q* Has CC(=O)N[C@@H]1[C@H](OP(=O)(O)OP(=O)(O)OC[C@H]2O[C@@H](n3ccc(=O)[nH]c3=O)[C@H](O)[C@@H]2O)O[C@@H](CO)[C@H](O)[C@H]1O (stereo in doubt; 1) a recorded Vmax/Km greater than or equal to 0.3 min⁻¹?
*A* 1

Others:
*Q* Has "CC(=O)N[C@H]1[C@@H](OP(=O)(O)OP(=O)(O)OC[C@H]2O[C@@H](n3ccc(=O)[nH]c3=O)[C@H](O)[C@@H]2O)O[C@H](C)[C@H](O)[C@@H]1O" a recorded Vmax/Km greater than or equal to 0.3 min⁻¹?
*A* 0

*Q* Has "CC(=O)N[C@H]1[C@@H](OP(=O)(O)OP(=O)(O)OC[C@H]2O[C@@H](n3ccc(=O)[nH]c3=O)[C@H](O)[C@@H]2O)O[C@H](CO)C[C@@H]1O" a recorded Vmax/Km greater than or equal to 0.3 min⁻¹?
*A* 0

*Q* Has "CC(=O)N[C@H]1[C@@H](OP(=O)(O)OP(=O)(O)OC[C@H]2O[C@@H](n3ccc(=O)[nH]c3=O)[C@H](O)[C@@H]2O)O[C@H](C)[C@@H](O)[C@@H]1O" a recorded Vmax/Km greater than or equal to 0.3 min⁻¹?
*A* 0
